This collection of values is drawn from PubChem BioAssay.

test: HepG2 liver cancer cell viability effects, profiling panel, resazurin fluorescence, 24 h, PK04 Diversity Set (AID 1172); settings: higher = more signal; note: test concentration not given here
Recorded endpoint: z-score
Please give the numeric answer without any surrounding text.

1) Cc1ccc(N2C(=O)c3ccccc3[C@](C)(C(=O)NCC(C)C)[C@@H]2c2ccc(CO)cc2)nc1 :: 0.1
2) Cc1ccc(S[C@]2(C(=O)NCCN3CCOCC3)CC(=O)N(C3Cc4ccccc4C3)[C@@H]2c2ccc(CO)cc2I)cc1 :: 0.0862
3) C=CCC(OC(C)=O)[C@@H]1[C@@H](N(Cc2ccc(-c3ccccc3)cc2)C(=O)c2ccc(-c3ccccc3)cc2)c2cc(OCCCO)ccc2N1C(=O)Cc1ccc(OC)cc1 (some centres not stated) :: -0.149
4) CC(C)NC(=O)[C@@]1(Cc2ccccc2I)c2ccccc2C(=O)N(C2CCCCC2)[C@H]1c1ccc(CO)cc1 :: 0.524
5) CC1=C([C@H](O)CCc2ccccc2)[C@H](CO)[C@@H]2C(=O)N(Cc3ccccc3)C(=O)[C@@H]2C1 :: 0.325
6) CO[C@H]1O[C@H](CO)[C@@H](OC(=O)Nc2ccc(Oc3ccccc3)cc2)[C@H](OC(=O)Nc2ccccc2-c2ccccc2)[C@H]1OC(=O)Nc1ccccc1-c1ccccc1 :: -2.96

Shift focus to the following entry.
[Q] Which z-score reading was recorded for the compound C=CC(=O)O[C@@H](Cc1ccccc1)[C@H]1C2C=CCCC=C2CN1Cc1cccc(Cl)c1 (some centres not stated) ?
[A] 1.36

###

target: Neurogenic locus notch homolog protein 3 (Homo sapiens) (UniProt Q9UM47); assay: NOTCH3 binders on small-molecule microarray, primary screen, biochemical, 635/667 nm fluorescence (AID 1096); conditions: NOTCH3 binding, 635 nm fluorescence, higher = more signal
Sequence (Q9UM47 whole entry, looked up): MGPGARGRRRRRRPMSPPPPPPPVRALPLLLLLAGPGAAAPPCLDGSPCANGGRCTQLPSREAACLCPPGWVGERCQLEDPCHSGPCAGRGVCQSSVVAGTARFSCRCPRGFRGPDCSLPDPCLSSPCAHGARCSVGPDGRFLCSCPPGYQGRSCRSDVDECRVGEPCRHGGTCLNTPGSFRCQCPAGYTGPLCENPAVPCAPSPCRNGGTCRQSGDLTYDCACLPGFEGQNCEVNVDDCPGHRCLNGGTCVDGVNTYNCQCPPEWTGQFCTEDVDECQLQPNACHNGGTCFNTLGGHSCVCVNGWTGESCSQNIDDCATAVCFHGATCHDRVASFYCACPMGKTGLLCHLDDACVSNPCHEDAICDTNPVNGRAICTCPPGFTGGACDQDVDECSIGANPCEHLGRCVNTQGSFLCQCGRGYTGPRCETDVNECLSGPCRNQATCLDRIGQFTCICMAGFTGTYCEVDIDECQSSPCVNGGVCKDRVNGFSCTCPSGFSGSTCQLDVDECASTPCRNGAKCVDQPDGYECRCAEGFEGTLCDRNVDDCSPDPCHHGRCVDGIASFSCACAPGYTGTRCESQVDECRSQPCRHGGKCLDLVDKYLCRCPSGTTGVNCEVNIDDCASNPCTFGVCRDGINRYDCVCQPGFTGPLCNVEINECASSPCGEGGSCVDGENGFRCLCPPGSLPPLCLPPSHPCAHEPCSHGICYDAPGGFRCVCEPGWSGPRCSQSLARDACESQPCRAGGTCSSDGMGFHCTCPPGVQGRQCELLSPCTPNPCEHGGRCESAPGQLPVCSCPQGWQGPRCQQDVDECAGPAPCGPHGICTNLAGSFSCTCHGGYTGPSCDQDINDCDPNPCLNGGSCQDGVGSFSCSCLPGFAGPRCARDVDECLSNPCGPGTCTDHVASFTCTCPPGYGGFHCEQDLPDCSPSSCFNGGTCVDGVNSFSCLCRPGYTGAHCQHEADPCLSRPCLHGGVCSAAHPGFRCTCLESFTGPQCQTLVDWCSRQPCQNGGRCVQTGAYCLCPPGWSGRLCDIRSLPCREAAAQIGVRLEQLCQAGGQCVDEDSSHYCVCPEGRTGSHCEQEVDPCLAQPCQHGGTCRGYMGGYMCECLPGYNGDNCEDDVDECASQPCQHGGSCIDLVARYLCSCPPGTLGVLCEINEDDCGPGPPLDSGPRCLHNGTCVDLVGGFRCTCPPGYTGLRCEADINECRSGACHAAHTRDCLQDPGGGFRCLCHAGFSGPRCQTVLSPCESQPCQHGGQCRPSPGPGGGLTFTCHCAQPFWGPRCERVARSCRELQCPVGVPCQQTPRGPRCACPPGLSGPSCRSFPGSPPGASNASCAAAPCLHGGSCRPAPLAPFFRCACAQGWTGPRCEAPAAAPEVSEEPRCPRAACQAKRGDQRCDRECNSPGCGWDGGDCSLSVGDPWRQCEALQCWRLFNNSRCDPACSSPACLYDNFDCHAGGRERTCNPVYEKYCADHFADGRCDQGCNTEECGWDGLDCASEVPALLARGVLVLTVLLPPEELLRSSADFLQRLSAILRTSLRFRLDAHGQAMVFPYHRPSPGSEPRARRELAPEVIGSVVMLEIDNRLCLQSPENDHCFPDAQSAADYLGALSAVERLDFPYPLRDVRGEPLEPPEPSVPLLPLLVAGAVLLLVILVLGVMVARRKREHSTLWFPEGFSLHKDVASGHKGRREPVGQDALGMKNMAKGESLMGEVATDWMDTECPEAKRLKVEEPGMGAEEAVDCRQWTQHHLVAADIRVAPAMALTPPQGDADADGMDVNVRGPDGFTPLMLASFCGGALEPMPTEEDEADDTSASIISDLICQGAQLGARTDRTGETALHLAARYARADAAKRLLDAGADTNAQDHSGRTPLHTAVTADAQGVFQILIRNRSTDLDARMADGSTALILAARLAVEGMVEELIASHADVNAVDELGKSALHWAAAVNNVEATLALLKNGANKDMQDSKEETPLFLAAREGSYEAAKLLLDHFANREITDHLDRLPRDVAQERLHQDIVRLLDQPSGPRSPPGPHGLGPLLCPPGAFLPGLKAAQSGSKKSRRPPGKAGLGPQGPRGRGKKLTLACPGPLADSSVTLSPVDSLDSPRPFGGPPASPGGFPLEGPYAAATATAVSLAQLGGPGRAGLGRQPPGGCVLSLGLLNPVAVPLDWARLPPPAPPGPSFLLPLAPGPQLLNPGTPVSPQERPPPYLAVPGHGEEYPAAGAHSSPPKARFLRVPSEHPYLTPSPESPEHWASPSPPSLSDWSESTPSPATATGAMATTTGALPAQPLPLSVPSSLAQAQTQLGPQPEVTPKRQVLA
Recorded endpoint: composite z-score
Returns: the value as a bare number; no unit string appended.

Below are worked cases with known answers.
1) CCCNC(=O)[C@@]1(Sc2ccc(C)cc2)CC(=O)N(Cc2ccccc2Cl)[C@@H]1c1ccc(CO)cc1 :: 1.11
2) C[C@@H]1NC(=O)[C@H](Cc2ccccc2)NC(=O)[C@@]23C(=O)N[C@@H](Cc4ccccc4)C2[C@H](C)[C@@]2(C)O[C@H]2C3/C=C/C/C=C\CNC1=O (some centres undefined) :: -0.769
3) O=C1O[C@@H](c2ccccc2)[C@@H](c2ccccc2)N2[C@@H](c3ccc(O)cc3)[C@]3(C(=O)Nc4ccccc43)[C@@H](C(=O)N3CCN(c4ncccn4)CC3)[C@H]12 :: 0.079
4) COCC(=C=CC[C@H](O)c1ccc(OCCO)cc1)C[C@H](O)c1ccccn1 :: -0.457
5) NC(=O)NCC#Cc1ccc2c(c1)[C@]1(C(=O)N2)[C@H](c2ccccc2OCCO)N2[C@H](c3ccccc3)[C@H](c3ccccc3)OC(=O)[C@H]2[C@@H]1C(=O)N1CCN(c2ncccn2)CC1 :: 1.02
6) O=C1O[C@H](c2ccccc2)[C@H](c2ccccc2)N2[C@H]1[C@@H](C(=O)Nc1nc3ccccc3s1)[C@]1(C(=O)Nc3ccc(C#CC4=CCCCC4)cc31)[C@H]2c1ccccc1OCCO :: 1.1
7) COc1cc([C@@H]2N[C@H](C(=O)O)Cc3c2[nH]c2ccccc32)cc(OC)c1OC :: 0.475
8) C[C@H]1NC(=O)[C@@H](C)NC(=O)[C@@]23C(=O)N[C@@H](Cc4ccccc4)C2[C@H](C)[C@@]2(C)O[C@H]2C3/C=C/C/C=C\CNC1=O (some centres undefined) :: -0.129

[Q] composite z-score lookup needed for CCCCCCc1nc(C2CC2)c(C)c2c1[Si](C(C)C)(C(C)C)OC2 , thanks.
[A] -1.26

[Q] Consider next the molecule CSCC[C@@H]1NC(=O)CC=C[C@@H](C)COC(=O)[C@H](CCSC)NC(=O)CC=C[C@@H](C)COC1=O in the same way.
[A] -0.35

[Q] Then this molecule: Cc1ccc(S(=O)(=O)N2[C@@H](c3ccccc3)C(C(=O)O)=CC[C@H]2c2ccccc2)cc1
[A] 0.622

[Q] Next record, please: C=CCN1C(=O)[C@]2(O[C@H](CCn3cc(CCO)nn3)[C@@H]([Si](C)(C)c3ccc(OC)cc3)[C@@H]2C)c2cc(NC(=O)c3ccc(OC)cc3)ccc21
[A] 0.527

[Q] Now try CCOC(=O)C[C@H]1[C@H](OC(=O)c2cc3ccccc3oc2=O)[C@@H](NC(=O)c2ccc3ccccc3c2)c2cc(OCCCO)ccc2N1C(=O)c1ccc2ccccc2n1 .
[A] 1.03

[Q] What would you report for O=C(N1CCCCC1)[C@@]1(CCS(=O)(=O)c2ccccc2)N=C(c2ccc(OCCCO)cc2)O[C@H]1c1ccccc1 ?
[A] 1.12

###

test: binders of probe aHhip on microarray, primary screen, stem cell growth factor project, biochemical, small-molecule microarray, fluorescence 635/667 (AID 1087); conditions: higher = more signal;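 note: score merges spot fluorescence at 667nm with spot signal to noise ratio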
Recorded endpoint: composite z-score
The reply should be a number, written without any unit.

1) CO[C@H]1COC(=O)[C@H](Cc2ccccc2)NC(=O)CC=C[C@@H](C)[C@H](OC)COC(=O)CC=C[C@@H]1C :: -0.504

[Q] Which composite z-score value belongs to O=C1O[C@H](c2ccccc2)[C@H](c2ccccc2)N2[C@H]1[C@@H](C(=O)Nc1nc3ccccc3s1)[C@]1(C(=O)Nc3ccc(C#CC4(O)CCCCCC4)cc31)[C@H]2c1ccc(O)cc1 ?
[A] 0.0623

[Q] Again, but for CC(C)[Si](OCC[C@H]1O[C@]2(C(=O)N(Cc3ccccc3)c3ccccc32)[C@@H](C)[C@@H]1[Si](C)(C)O)(C(C)C)C(C)C
[A] 0.0373

[Q] // repeat for O=[N+]([O-])c1ccc(C[n+]2ccc3ccc(O)cc3c2)o1 and report
[A] -0.411

[Q] Can you handle CCN1C(C)=C(C(=O)OC)[C@@H](c2ccccc2)N2C(=O)[C@](O)(C(=O)OC)[C@@H](c3ccccc3)C(C(=O)c3ccccc3)=C12 next?
[A] 0.141

[Q] Here is the next compound: C=CCNC(=O)[C@H]1[C@@H]2C(=O)O[C@@H](c3ccccc3)[C@@H](c3ccccc3)N2[C@@H](c2ccccc2OCCO)[C@]12C(=O)N(C(=O)OCCOC)c1ccc(C#CCC(C(=O)OC)C(=O)OC)cc12
[A] 0.276

###

assay: cell viability in Huh7 cells, primary screen, cytotoxicity control for HCV replication inhibitor project, CellTiter-Glo luminescence, basal, 48 h (AID 1143); details: Huh7 HCV replicon, higher = more signal, called active from +8 up or from −8 down;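 note: Huh7 hepatoma cells carrying a hepatitis C replication reporter with no stimulus; test concentration not given here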
just bin them by z-score: LOW: < -2; MEDIUM: ≥ -2 and < -0.3; HIGH: ≥ -0.3

1) O=C1O[C@H](c2ccccc2)[C@H](c2ccccc2)N2[C@H]1[C@@H](C(=O)Nc1nc3ccccc3s1)[C@]1(C(=O)Nc3ccc(C#CC4(O)CCCCCC4)cc31)[C@H]2c1ccc(O)cc1 :: MEDIUM
2) CC(C)[Si](OCCCNS(=O)(=O)c1ccc(Br)cc1)(C(C)C)C(C)C :: LOW
3) O=C/C=C/c1ccc(/C=C/c2ccccc2)cc1 :: LOW
4) CC(C)N1CC=CC23O[C@@H]4/C=C\CCCOC(=O)C4[C@H]2C(=O)N(CCCCCO)[C@@H]3C1=O (stereo partly drawn) :: HIGH
5) COC(=O)Cn1c(C(=O)N2CCCC2)cc2c1C[C@H]1CN(C(=O)c3ccccc3)[C@@](Cc3ccc(OC)cc3)(C(=O)OC)[C@@H]21 :: LOW
6) C=C(C(=O)CC[C@H](OC(=O)c1ccccc1-c1ccccc1C(=O)O)c1ccc(CO)o1)C(C)C :: HIGH
7) COc1ccc([Si](C)(C)[C@H]2[C@H](CCO)O[C@@]3(C(=O)N(Cc4ccccc4)c4ccc(N5C(=O)c6cccc7cccc5c67)cc43)[C@@H]2C)cc1 :: LOW
8) COc1cc(CO)cc(I)c1O[C@H]1C=C(C(=O)NCCO)C[C@@H](N(CC2CCCCC2)C(=O)c2cc3ccccc3oc2=O)[C@@H]1O :: HIGH

[Q] Hi there! Could you help me figure out the category for C=CC[C@@]1(C(=O)N2CCOCC2)N=C(c2ccc(OCCCO)cc2)O[C@@H]1c1ccccc1 please?
[A] MEDIUM

[Q] Could you do the same for CCCC[C@@H]1C[C@H]1[C@@H](NC(=O)c1ccccc1)c1ccccc1C(F)(F)F , please?
[A] HIGH

[Q] Okay, and CCN1C(C)=C(C(=O)OC)[C@@H](c2ccccc2)N2C(=O)[C@](O)(C(=O)OC)[C@@H](c3ccccc3)C(C(=O)c3ccccc3)=C12 ?
[A] MEDIUM

###

molecular target: Calmodulin-1 (Homo sapiens) (UniProt P0DP23); assay: CALM1 binders on microarrays, EGTA buffer, profiling panel, biochemical, small-molecule microarray, Cy5-labelled CALM1 (AID 1111); conditions: Cy5-CALM1 binding fluorescence, higher = more signal;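 note: labelled calmodulin applied in Tris saline Tween buffer holding calcium plus EGTA and DTT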
Tick Met if composite z-score is -0.3 or greater. Tick Not met if composite z-score is less than -0.3.

1. CCCC=C(CCC)[C@@H](NC(=O)c1ccc(C(F)(F)F)cc1)c1ccccc1 :: Met

[Q] Kindly determine if composite z-score recorded for COc1ccc(CCNC(=O)[C@@]2(c3ccc([N+](=O)[O-])cc3)CC(=O)N(C(C)C)[C@@H]2c2ccc(CO)cc2)cc1 is above or exactly -0.3.
[A] Not met

[Q] Note, next up: CO[C@H]1COC(=O)CC=C[C@H](C)[C@@H](OC)COC(=O)CC=C[C@@H]1C
[A] Not met

[Q] Another: C=C(CCCC)/C(=C/C[C@@H](OC(=O)c1ccncc1)c1ccc(CO)o1)c1cnc2ccccc2c1
[A] Met
